assay-system: human GCN2 full-length protein (Homo sapiens, UniProt Q9P2K8)
Construct: purchased Carna Biosciences, Inc
Sequence (Q9P2K8 whole entry): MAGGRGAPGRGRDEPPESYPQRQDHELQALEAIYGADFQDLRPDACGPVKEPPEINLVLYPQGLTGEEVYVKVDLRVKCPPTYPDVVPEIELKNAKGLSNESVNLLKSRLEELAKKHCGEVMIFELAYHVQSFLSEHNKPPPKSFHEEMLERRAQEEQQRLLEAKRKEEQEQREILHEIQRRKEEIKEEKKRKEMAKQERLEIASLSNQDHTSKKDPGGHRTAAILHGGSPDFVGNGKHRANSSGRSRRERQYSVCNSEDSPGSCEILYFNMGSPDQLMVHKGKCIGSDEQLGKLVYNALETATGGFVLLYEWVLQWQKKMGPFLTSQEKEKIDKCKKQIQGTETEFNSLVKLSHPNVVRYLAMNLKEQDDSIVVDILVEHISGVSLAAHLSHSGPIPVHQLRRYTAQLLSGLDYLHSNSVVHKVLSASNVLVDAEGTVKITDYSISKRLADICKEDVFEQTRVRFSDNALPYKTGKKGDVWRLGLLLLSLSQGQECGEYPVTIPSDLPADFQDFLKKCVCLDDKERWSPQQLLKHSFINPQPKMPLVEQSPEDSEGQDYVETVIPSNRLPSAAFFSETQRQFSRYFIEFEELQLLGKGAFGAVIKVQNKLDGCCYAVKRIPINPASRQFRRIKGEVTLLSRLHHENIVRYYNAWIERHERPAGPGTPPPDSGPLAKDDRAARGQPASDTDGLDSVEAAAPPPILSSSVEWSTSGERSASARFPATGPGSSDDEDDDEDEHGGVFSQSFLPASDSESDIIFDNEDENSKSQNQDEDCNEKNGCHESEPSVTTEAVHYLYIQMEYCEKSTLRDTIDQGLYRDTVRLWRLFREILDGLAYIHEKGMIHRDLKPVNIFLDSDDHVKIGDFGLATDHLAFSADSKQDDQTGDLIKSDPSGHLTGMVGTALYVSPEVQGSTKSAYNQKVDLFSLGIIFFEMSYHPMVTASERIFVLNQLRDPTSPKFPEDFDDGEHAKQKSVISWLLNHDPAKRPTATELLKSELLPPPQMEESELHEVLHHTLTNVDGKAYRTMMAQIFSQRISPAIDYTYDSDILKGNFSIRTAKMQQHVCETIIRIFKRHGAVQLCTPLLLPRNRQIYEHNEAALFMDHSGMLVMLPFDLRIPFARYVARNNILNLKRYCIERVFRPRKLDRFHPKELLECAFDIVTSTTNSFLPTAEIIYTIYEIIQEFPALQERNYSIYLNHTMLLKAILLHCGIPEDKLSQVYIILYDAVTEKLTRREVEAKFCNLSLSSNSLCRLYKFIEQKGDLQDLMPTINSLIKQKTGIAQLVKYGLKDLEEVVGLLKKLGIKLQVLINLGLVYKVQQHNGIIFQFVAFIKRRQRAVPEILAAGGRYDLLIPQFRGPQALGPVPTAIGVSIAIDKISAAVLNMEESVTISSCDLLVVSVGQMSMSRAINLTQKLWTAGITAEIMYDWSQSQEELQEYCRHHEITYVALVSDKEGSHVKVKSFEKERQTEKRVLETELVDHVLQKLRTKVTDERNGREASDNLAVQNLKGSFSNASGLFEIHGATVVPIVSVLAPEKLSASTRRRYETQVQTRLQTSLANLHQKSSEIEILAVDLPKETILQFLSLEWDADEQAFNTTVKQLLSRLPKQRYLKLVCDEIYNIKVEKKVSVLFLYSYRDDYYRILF
protocol-summary: GCN2 enzyme inhibition assay (LanthaScreen TR-FRET)
Type: biochemical
condition-description: GCN2 enzyme inhibitory activity at compound concentration of 3 μM; Table 3-2; read-out: inhibitory rate
property-measured: inhibition at 3 µM (%)
Form entry: value (%) — number only.

// compound COc1c(CO)cc(Cl)cc1S(=O)(=O)Nc1ccc(F)c(C#Cc2cnc(NC3CC3)nn2)c1F [Example 168] , assay human GCN2 full-length protein (Homo sapiens, UniProt Q9P2K8), inhibition at 3 µM value: 99

// compound COc1c(CO)cc(Cl)cc1S(=O)(=O)Nc1ccc(F)c(C#Cc2cnc(N)nn2)c1F [Example 130] , assay human GCN2 full-length protein (Homo sapiens, UniProt Q9P2K8), inhibition at 3 µM value: 99

// compound COc1c(CO)cc(Cl)cc1S(=O)(=O)Nc1ccc(F)c(C#Cc2cnc(NC3CC3)nc2)c1F [Example 138] , assay human GCN2 full-length protein (Homo sapiens, UniProt Q9P2K8), inhibition at 3 µM value: 99

// compound Cc1ncc(Cl)cc1S(=O)(=O)Nc1ccc(F)c(C#Cc2cnc(N)nn2)c1F [Example 158] , assay human GCN2 full-length protein (Homo sapiens, UniProt Q9P2K8), inhibition at 3 µM value: 99

// compound CNc1ncc(Cl)cc1S(=O)(=O)Nc1ccc(F)c(C#Cc2cnc(N[C@H]3CC[C@H](O)CC3)nc2)c1F [Example 182] , assay human GCN2 full-length protein (Homo sapiens, UniProt Q9P2K8), inhibition at 3 µM value: 102

// compound Cc1ncc(Cl)cc1S(=O)(=O)Nc1ccc(F)c(C#Cc2cnc(Nc3cnn(C)c3)nc2)c1F [Example 163] , assay human GCN2 full-length protein (Homo sapiens, UniProt Q9P2K8), inhibition at 3 µM value: 100

// compound COc1ncc(Cl)cc1S(=O)(=O)Nc1ccc(F)c(C#Cc2cnc(N[C@H](C)CO)nc2)c1F [Example 175] , assay human GCN2 full-length protein (Homo sapiens, UniProt Q9P2K8), inhibition at 3 µM value: 99

// compound COc1c(CO)cc(Cl)cc1S(=O)(=O)Nc1ccc(F)c(C#Cc2cnc(NC3COC3)nc2)c1F [Example 140] , assay human GCN2 full-length protein (Homo sapiens, UniProt Q9P2K8), inhibition at 3 µM value: 99

// compound COc1c(CO)cc(Cl)cc1S(=O)(=O)Nc1ccc(F)c(C#Cc2cnc(NC3CCOC3)nc2)c1F (stereo not drawn) [Example 141] , assay human GCN2 full-length protein (Homo sapiens, UniProt Q9P2K8), inhibition at 3 µM value: 99

// compound C[C@H](CO)Nc1ncc(C#Cc2c(F)ccc(NS(=O)(=O)c3cc(Cl)cc4c3OCC4O)c2F)cn1 (stereo partly drawn) [Example 184] , assay human GCN2 full-length protein (Homo sapiens, UniProt Q9P2K8), inhibition at 3 µM value: 99

// compound C[C@H](CO)Nc1ncc(C#Cc2c(F)ccc(NS(=O)(=O)c3cc(Cl)cc(CO)c3Cl)c2F)cn1 [Example 180] , assay human GCN2 full-length protein (Homo sapiens, UniProt Q9P2K8), inhibition at 3 µM value: 103

// compound COc1ncc(Cl)cc1S(=O)(=O)Nc1ccc(F)c(C#Cc2cnc(N[C@H]3CC[C@H](O)CC3)nc2)c1F [Example 174] , assay human GCN2 full-length protein (Homo sapiens, UniProt Q9P2K8), inhibition at 3 µM value: 99

// compound Nc1ncc(C#Cc2c(F)ccc(NS(=O)(=O)c3cc(Cl)cn4c(Cl)cnc34)c2F)cn1 [Example 165] , assay human GCN2 full-length protein (Homo sapiens, UniProt Q9P2K8), inhibition at 3 µM value: 96

// compound O=S(=O)(Nc1ccc(F)c(C#Cc2cnc(N[C@H]3CC[C@H](O)CC3)nn2)c1F)c1cc(Cl)cc(CO)c1Cl [Example 177] , assay human GCN2 full-length protein (Homo sapiens, UniProt Q9P2K8), inhibition at 3 µM value: 100

// compound Nc1ncc(C#Cc2c(F)ccc(NS(=O)(=O)c3cc(Cl)cc4ccoc34)c2F)cn1 [Example 173] , assay human GCN2 full-length protein (Homo sapiens, UniProt Q9P2K8), inhibition at 3 µM value: 99
